- System: phospho-Akt in BxPC-3 pancreatic cancer cells
- run_description: Cell inhibition of phospho-Akt in BxPC-3 pancreatic cancer cells
- Assay type: cell-based
- measurement_context: Homo sapiens, BXPC-3, read-out: IC50 (Akt inhibition)
Entries and their IC50

Solved entries:
>>> print(df.to_string())
                                   molecule   result
0  CC(=O)Nc1ccc(S(=O)(=O)Nc2nncs2)cc1 [Compound 11]  > 50 µM
1  CCCCCCCCCC(=O)Nc1ccc(S(=O)(=O)Nc2nncs2)cc1 [Compound 13]    10 µM

Turning now to a further record.
Task: Please give the measured IC50 for this molecule: COCCOCCOCC(=O)Nc1ccc(S(=O)(=O)Nc2nncs2)cc1 [Compound 12]
Result: > 50 µM
